# target: JAK2 (catalytic domain, His-tag) (Homo sapiens, UniProt O60674)
# Construct: All four purified enzymes contain only the catalytic domain; His (N); purchased Carna Biosciences, Inc; host or cells: baculovirus expression system
# Sequence (O60674 849-1124 limits assumed): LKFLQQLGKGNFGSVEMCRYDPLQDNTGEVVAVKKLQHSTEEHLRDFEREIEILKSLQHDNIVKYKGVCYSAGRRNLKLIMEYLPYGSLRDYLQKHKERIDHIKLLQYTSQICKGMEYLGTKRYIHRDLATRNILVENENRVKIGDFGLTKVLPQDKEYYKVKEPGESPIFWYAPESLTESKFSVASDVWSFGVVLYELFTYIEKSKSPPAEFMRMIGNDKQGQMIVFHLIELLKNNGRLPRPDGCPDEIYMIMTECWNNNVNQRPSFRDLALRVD
# experimental details: JAK kinase assay (HTRF, phosphorylation of TK substrate-biotin), JAK2
# Format: biochemical
# condition: ATP at Km (4 μM); read-out: JAK2 kinase inhibitory activity (EC50 indicator)
Task for the reader: assign each of the following molecules its reported EC50.

For each of the molecules below, state EC50.
1. O=C(c1ccc(C(F)(F)F)cc1)N1CCN(c2ncnc3[nH]ccc23)CC12CC2
2. Cc1c(C(=O)N2CCN(c3ncnc4[nH]ccc34)CC23CC3)[nH]c2ccc(F)cc12
3. O=C(c1ccc2[nH]cnc2c1)N1CCN(c2ncnc3[nH]ccc23)CC12CC2

Key:
< 0.1 µM
0.1 to 0.5 µM
< 0.1 µM
